B1: HDV Ribozyme (parent)
chain: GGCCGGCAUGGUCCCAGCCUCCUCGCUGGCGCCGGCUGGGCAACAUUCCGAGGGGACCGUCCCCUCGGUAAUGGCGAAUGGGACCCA

Variants of: B1
Test: self-cleavage, relative activity (ratio to wild type); higher = more cleavage; co-transcriptional
Would you mind telling me the reported self-cleavage of each entry?
One number for each entry.

Previously resolved entries follow.
>>> assay_value("GGCCGGCAUUGUCCCAGCCUCCUCGCUGGCGCCGGCUGGGCACCAUUCCGAGGGGACCGUCCCCUCGGUAAUGGCGAAUGGGACCCA")
0.115
>>> assay_value("GGCCGGCGUGGUCCCAGCCUCCUCGCUGGCGCCGGCUGGGCAACAUUCCGAGGGGACCGUCCCCUCGGGAAUGGCGAAUGGGACCCA")
1.19

// batch mode: one self-cleavage value per listed entry
1. GGCCGGCAUGGUCCCAGCCUCCUCGCUGGCGCCGGCUGGGCAACAUUCCGAGGGGACCGUCACCUAGGUAAUGGCGAAUGGGACCCA
2. GGCCGGCAUGUUCCCAGCCUCCUCGCUGGCGCCGGCUGGGCAACAUUCCGAGGGGACCUUCCCCUCGGUAAUGGCGAAUGGGACCCA
3. GGCCGGCAUGGUCCCAGCCUCCUCGCUGGCGCCGGCUGGGCAGCAUUCCGAGGGGACCGUCCCCUCGAUAAUGGCGAAUGGGACCCA
4. GGCCGGCAUGGUCCCAGCGUCCUCGCUGGCGCCGGCUGGGCAACAUUCCGAGGGGACCGUCACCUCGGUAAUGGCGAAUGGGACCCA

[0.32, 0.41, 0.665, 0.0264]

Any idea what its self-cleavage is? The variant is GGCCGGCAUGGUCCCAGCCUCCUCGCUGGCGCCGGCUGGGCAACAUUCCGCGGGGACCGUCCCCUCGGUAAUGGCGAAUGGCACCCA
0.534
